- System: Plasmodium berghei
- assay_summary: Luciferase/luciferin-expressing antifolate-resistant parasites were used to infect a culture of HepG2 cells that were pre-incubated with compounds. Infected hepatocytes emit light due to the luciferase reaction. Assay results are presented as the percent inhibition of light emission compared to control. […]
- Assay type: functional
- condition_summary: sporozoite, HEPG2TOX_HILL_SLOPE 16.9, HEPG2TOX_R_SQUARED 0.641, PBLUC_HILL_SLOPE 12.4, PBLUC_R_SQUARED 0.659, read-out: LUCIFERASE INFECTION ASSAY - IC50
measure: IC50 (nM)

>  <structure_string>
CN1/C(=C\C=N\NC(=O)c2ccccc2NS(=O)(=O)c2cccs2)C(C)(C)c2ccccc21

>  <numeric_value>
1010

$$$$

----------
- Tested on: Plasmodium berghei
- assay_summary: Luciferase/luciferin-expressing antifolate-resistant parasites were used to infect a culture of HepG2 cells that were pre-incubated with compounds. Infected hepatocytes emit light due to the luciferase reaction. Assay results are presented as the percent inhibition of light emission compared to control. […]
- Type: functional
- condition_summary: sporozoite, read-out: LUCIFERASE INFECTION ASSAY - IC50
measure: IC50

>  <molecule>
Cc1cc(C)cc(N(CCC#N)C(=O)CSc2nc3cc(Cl)ccc3c(=O)n2Cc2ccccc2)c1

>  <measure>
IC50

>  <result>
> 10 µM

$$$$
>  <molecule>
CC(C)CC(N)c1csc(NC(=O)c2ccc(F)c(Cl)c2)n1 (configuration not stated)

>  <measure>
IC50

>  <result>
8.74 µM

$$$$
>  <molecule>
COc1ccc(OC)c(NC(=O)c2cc(-c3ccccc3)nn2-c2ccccc2)c1

>  <measure>
IC50

>  <result>
> 10 µM

$$$$
>  <molecule>
Clc1ccc(CNc2ncnc3sccc23)cc1

>  <measure>
IC50

>  <result>
3.31 µM

$$$$
>  <molecule>
Cc1ccc(-c2nnc(SCC(=O)N3N=C(c4ccc5ccccc5c4)CC3c3ccccc3)[nH]2)cc1 (configuration not stated)

>  <measure>
IC50

>  <result>
> 10 µM

$$$$
>  <molecule>
CC(C)c1ccc(CSc2nnc(CC3CCS(=O)(=O)C3)o2)cc1 (configuration not stated)

>  <measure>
IC50

>  <result>
> 10 µM

$$$$
>  <molecule>
N#Cc1cc(C(=O)c2cc(F)ccc2OC(=O)C2(c3ccccc3)CC2)cn(Cc2ccccc2)c1=O

>  <measure>
IC50

>  <result>
> 10 µM

$$$$
>  <molecule>
CCN(C(=O)COc1ccc(-c2ccccc2)cc1)c1cccc2ccccc12

>  <measure>
IC50

>  <result>
> 10 µM

$$$$
>  <molecule>
CCCc1cc(N2CCN(C)CC2)n2ncc(-c3ccccc3)c2n1

>  <measure>
IC50

>  <result>
2.71 µM

$$$$
>  <molecule>
CN(C)C(=O)CN(C)S(=O)(=O)/C=C/c1ccccc1

>  <measure>
IC50

>  <result>
> 10 µM

$$$$
>  <molecule>
FC(F)(F)c1cccc(-c2cnc3sc(NCCc4ccncc4)nn23)c1

>  <measure>
IC50

>  <result>
> 8.47 µM

$$$$
>  <molecule>
O=C(NCc1ccc(Cn2cccn2)cc1)N1CCN(c2ccc(C(F)(F)F)cc2[N+](=O)[O-])CC1

>  <measure>
IC50

>  <result>
> 10 µM

$$$$
>  <molecule>
CNC(=S)Nc1ccc(-n2cnc3ccccc32)cc1

>  <measure>
IC50

>  <result>
> 10 µM

$$$$
>  <molecule>
Oc1c(C(c2ccc(Cl)cc2Cl)N2CCOCC2)ccc2cccnc12 (configuration not stated)

>  <measure>
IC50

>  <result>
4.36 µM

$$$$
>  <molecule>
NC(=S)CCOC1CCN(Cc2ccccc2)CC1

>  <measure>
IC50

>  <result>
> 11.9 µM

$$$$
>  <molecule>
CNS(=O)(=O)c1ccc(CCC(=O)OC2CCCCC2=O)cc1 (configuration not stated)

>  <measure>
IC50

>  <result>
> 10 µM

$$$$
>  <molecule>
CCCCN(C(=O)CCC(=O)OCC(=O)NC(=O)NCC)c1c(N)n(CCC)c(=O)[nH]c1=O

>  <measure>
IC50

>  <result>
> 10 µM

$$$$
>  <molecule>
O=C(NNC(=O)c1ccc(CSc2ccc(C(F)(F)F)cn2)o1)c1ccc(Cl)cc1

>  <measure>
IC50

>  <result>
> 7.24 µM

$$$$
>  <molecule>
COc1ccc(S(=O)(=O)N2CCN(CC(=O)N3CCCCCC3)CC2)cc1

>  <measure>
IC50

>  <result>
> 10 µM

$$$$
>  <molecule>
COc1ccc(-c2nc(NC(=O)c3cnc(C)cn3)sc2C)cc1

>  <measure>
IC50

>  <result>
> 10 µM

$$$$
>  <molecule>
CCOC(=O)c1cnn(-c2cccc(NC(=O)c3ccc(SC)c([N+](=O)[O-])c3)c2)c1C

>  <measure>
IC50

>  <result>
> 10 µM

$$$$
>  <molecule>
CC(C)CCCC(C)NC(=O)CSCc1cccc(C(=O)O)c1 (configuration not stated)

>  <measure>
IC50

>  <result>
> 10 µM

$$$$
>  <molecule>
O=C(Nc1ccc(Oc2cccc3cccnc23)cc1)c1cccs1

>  <measure>
IC50

>  <result>
> 9.53 µM

$$$$
>  <molecule>
COc1cc(NS(=O)(=O)c2ccc(C)cc2)c(OC)cc1Cl

>  <measure>
IC50

>  <result>
2.01 µM

$$$$
>  <molecule>
Cc1ccc2nc(C(F)(F)F)c(C(=O)NCc3cc(Cl)cc(Cl)c3)n2c1

>  <measure>
IC50

>  <result>
> 8.2 µM

$$$$
>  <molecule>
COCCN(CCOC)C(=O)CSc1nnc(/C=C/c2ccccc2)[nH]1

>  <measure>
IC50

>  <result>
> 10 µM

$$$$
>  <molecule>
C=S(=O)(N/C=C1/C(=O)c2ccccc2N(C)S1(=O)=O)c1ccccc1 (configuration not stated)

>  <measure>
IC50

>  <result>
> 8.77 µM

$$$$
>  <molecule>
CC(N)c1csc(NC(=O)c2cccnc2Oc2ccccc2)n1 (configuration not stated)

>  <measure>
IC50

>  <result>
3.09 µM

$$$$
>  <molecule>
COc1ccc(OCCCN2CCN(C(=O)C34CC5CC(CC(C5)C3)C4)CC2)cc1

>  <measure>
IC50

>  <result>
> 10 µM

$$$$
>  <molecule>
CC12CC3CC(C1)CC(c1ccc(O)cc1)(C3)C2

>  <measure>
IC50

>  <result>
> 10 µM

$$$$
>  <molecule>
O=C(Nc1ccc(-c2nc3ccccc3[nH]2)cc1)c1cnn(-c2ccccc2)c1C1CC1

>  <measure>
IC50

>  <result>
3.31 µM

$$$$
>  <molecule>
Cc1ccc(C23CC4CC(CC(C(=O)N5CCN(CCc6ccccc6)CC5)(C4)C2)C3)cc1

>  <measure>
IC50

>  <result>
> 10 µM

$$$$
>  <molecule>
CCN(CC)CC(O)COc1cc(C(F)(F)F)ccn1 (configuration not stated)

>  <measure>
IC50

>  <result>
> 11.3 µM

$$$$
>  <molecule>
CC1CCc2ccccc2N1CC(=O)N(CCC(N)=O)Cc1ccccc1 (configuration not stated)

>  <measure>
IC50

>  <result>
> 10 µM

$$$$
>  <molecule>
COc1ccc(Cl)cc1NC(=O)CN(C)C(=O)c1cc(-c2ccccc2)nc2c1cnn2C(C)C

>  <measure>
IC50

>  <result>
> 10 µM

$$$$
>  <molecule>
COc1ccc2c(COC(=O)c3[nH]c(C)c(C(C)=O)c3C)cc(=O)oc2c1

>  <measure>
IC50

>  <result>
> 10 µM

$$$$
>  <molecule>
O=C(NCc1cn2ccccc2n1)c1cccc(S(=O)(=O)N2CCc3ccccc3C2)c1

>  <measure>
IC50

>  <result>
> 10 µM

$$$$
>  <molecule>
COCc1c(C(=O)Nc2nnc(C3CCCCC3)s2)oc2ccccc12

>  <measure>
IC50

>  <result>
> 10 µM

$$$$
>  <molecule>
CCOC(/C=C1\Sc2c(ccc3c2CCCC3)N1CC)=C1/SC(=S)N(CC)C1=O

>  <measure>
IC50

>  <result>
> 10 µM

$$$$
>  <molecule>
O=C(NCc1cc(Cl)cc(Cl)c1)c1cc(C(F)(F)F)cc(C(F)(F)F)c1

>  <measure>
IC50

>  <result>
> 7.93 µM

$$$$
>  <molecule>
CC1CCN(Cc2nc(Oc3cccc4c3OC(C)(C)C4)c3c(-c4ccccc4)csc3n2)CC1

>  <measure>
IC50

>  <result>
> 10 µM

$$$$
>  <molecule>
Cc1cc(C)c(S(=O)(=O)N2CCN(C(=O)CCCOc3ccc(Cl)c(C)c3)CC2)c(C)c1

>  <measure>
IC50

>  <result>
> 10 µM

$$$$
